Where do these numbers come from? They come from patent US20250177383A1.

Biological target: IL-17A/A (Homo sapiens, UniProt Q16552)
Sequence (Q16552 24-155): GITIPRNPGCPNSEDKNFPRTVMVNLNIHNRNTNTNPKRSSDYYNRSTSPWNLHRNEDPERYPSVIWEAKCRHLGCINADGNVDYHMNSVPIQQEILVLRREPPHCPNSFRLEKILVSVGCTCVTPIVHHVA
Experiment: IL-17A/A HEK-Blue Cell Assay
Assay type: cell-based
Conditions: HEK-Blue IL-17 reporter cells, IL-17A/A stimulation, 20 hours, SEAP readout; read-out: IL17 AA HEK-5 pIC50 (converted)
metricName: IC50

CCn1nccc1C(=O)N[C@H](C(=O)Nc1ccc([C@H](C)[C@@H](NC(=O)C(C)C(F)(F)F)C(=O)N2CCN(C)[C@H](C)C2)cc1F)C(C1CC1)C1CC1 (single isomer, unassigned)    10 to 100 nM
CCOC(=O)N[C@@H](C)C(=O)N[C@@H](C(=O)N1CCN(C)CC1)[C@@H](C)c1ccc(NC(=O)[C@@H](NC(=O)C2(F)CC2)C(C2CC2)C2CC2)c(F)c1    < 10 nM
CCn1nccc1C(=O)N[C@H](C(=O)Nc1ccc([C@H](C)[C@@H](NC(=O)[C@H](C)OC)C(=O)N2C[C@@H](C)N(C)C[C@H]2C)cc1F)C(C1CC1)C1CC1    < 10 nM
CCOC(C)C(=O)N[C@@H](C(=O)N1CCN(C)CC1)[C@@H](C)c1ccc(NC(=O)[C@@H](NC(=O)c2ccnn2CC)C(C2CC2)C2CC2)c(F)c1 (single isomer, unassigned) [Compound 329]    10 to 100 nM
C[C@@H]1CN(C(=O)[C@H](NC(=O)N(C)C2CC2)[C@@H](C)c2ccc(NC(=O)[C@@H](NC(=O)C3(F)CC3)C(C3CC3)C3CC3)c(F)c2)CCN1C    < 10 nM
CCOC(=O)N[C@@H](CF)C(=O)N[C@@H](C(=O)N1CCN(C)[C@H](C)C1)[C@@H](C)c1ccc(NC(=O)[C@@H](NC(=O)C2(F)CC2)C(C2CC2)C2CC2)c(F)c1    < 10 nM
CCOC(=O)N[C@@H](CF)C(=O)N[C@@H](C(=O)N1CCN(C)CC1)[C@@H](C)c1ccc(NC(=O)[C@@H](NC(=O)c2nonc2C)C(C2CC2)C2CC2)c(F)c1    < 10 nM
CCC(=O)N[C@@H](C(=O)N1CCN(C)[C@H](C)C1)[C@@H](C)c1ccc(NC(=O)[C@@H](NC(=O)c2ccnn2CCO)C(C2CC2)C2CC2)c(F)c1    100 to 10000 nM
CCOC(C)C(=O)N[C@@H](C(=O)N1CCN(C)[C@H](C)C1)[C@@H](C)c1ccc(NC(=O)[C@@H](NC(=O)c2ccnn2CC)C(C2CC2)C2CC2)c(F)c1 (single isomer, unassigned) [Compound 320]    10 to 100 nM
CCn1nccc1C(=O)N[C@H](C(=O)Nc1ccc([C@H](C)[C@@H](NC(=O)C(C)CC(F)(F)F)C(=O)N2CCN(C)CC2)cc1F)C(C1CC1)C1CC1 (single isomer, unassigned)    10 to 100 nM
CCn1nccc1C(=O)N[C@H](C(=O)Nc1ccc([C@H](C)[C@@H](NC(=O)N(C)C2CC2)C(=O)N2CCN(C)CC2)cc1F)C(C1CC1)C1CC1    < 10 nM
CCn1nccc1C(=O)N[C@H](C(=O)Nc1ccc([C@H](C)[C@@H](NC(=O)COC)C(=O)N2CCN(C)CC2)cc1F)C(C1CC1)C1CC1    10 to 100 nM
CCC(=O)N[C@@H](C(=O)N1C[C@@H](C)N(C)[C@@H](C)C1)[C@@H](C)c1ccc(NC(=O)[C@@H](NC(=O)c2ccnn2CC)C(C2CC2)C2CC2)c(F)c1    < 10 nM
CCC(=O)N[C@@H](C(=O)N1CCNC(CF)C1)[C@@H](C)c1ccc(NC(=O)[C@@H](NC(=O)c2nonc2CC)C(C2CC2)C2CC2)c(F)c1 (single isomer, unassigned)    < 10 nM
CCOC(=O)N[C@@H](C)C(=O)N[C@@H](C(=O)N1CCN(C)[C@H](C)C1)[C@@H](C)c1ccc(NC(=O)[C@@H](NC(=O)C2(F)CC2)C(C2CC2)C2CC2)c(F)c1    < 10 nM
CCn1nccc1C(=O)N[C@H](C(=O)Nc1ccc([C@H](C)[C@@H](NC(=O)COC)C(=O)N2CCN(C)C(CF)C2)cc1F)C(C1CC1)C1CC1 (single isomer, unassigned)    < 10 nM
CCC(=O)N[C@@H](C(=O)N1C[C@H]2C[C@@H](C1)N2C)[C@@H](C)c1ccc(NC(=O)[C@@H](NC(=O)c2ccnn2CC)C(C2CC2)C2CC2)c(F)c1    10 to 100 nM
CCC(=O)N[C@@H](C(=O)N1C[C@H]2CC[C@@H](C1)N2C)[C@@H](C)c1ccc(NC(=O)[C@@H](NC(=O)c2ccnn2C(C)C)C(C2CC2)C2CC2)c(F)c1    < 10 nM
COC(=O)N1CCC[C@H]1C(=O)N[C@@H](C(=O)N1CCN(C)[C@H](C)C1)[C@@H](C)c1ccc(NC(=O)[C@@H](NC(=O)C2(F)CC2)C(C2CC2)C2CC2)c(F)c1    < 10 nM
CCC(=O)N[C@@H](C(=O)N1CCN(C)C[C@@H]1C)[C@@H](C)c1ccc(NC(=O)[C@@H](NC(=O)c2ccnn2CC)C(C2CC2)C2CC2)c(F)c1    < 10 nM

###

Entries and their measured IC50 follow.
Target: IL-17A/A (Homo sapiens)
Assay: IL-17A/A HEK-Blue Cell Assay
Format: cell-based
Conditions: HEK-Blue IL-17 reporter cells, IL-17A/A stimulation, 20 hours, SEAP readout; read-out: IL17 AA HEK-5 pIC50 (converted)
metricName: IC50

CCn1nccc1C(=O)N[C@H](C(=O)Nc1ccc([C@H](C)[C@@H](NC(=O)C(C)Cc2cc(O)no2)C(=O)N2CCN(C)[C@H](C)C2)cc1F)C(C1CC1)C1CC1 (single isomer, unassigned) [Compound 344]    < 0.01 µM
COCC(=O)N[C@@H](C(=O)N1C[C@@H](C)N(C)C[C@H]1C)[C@@H](C)c1ccc(NC(=O)[C@@H](NC(=O)C2(F)CC2)C(C2CC2)C2CC2)c(F)c1    < 0.01 µM
CCC(=O)N[C@@H](C(=O)N1CCN(C)[C@H](C)C1)[C@@H](C)c1ccc(NC(=O)[C@@H](NC(=O)c2ccnn2CC)C(C2CC2)C2CC2)c(F)c1    < 0.01 µM
CO[C@@H](C)C(=O)N[C@@H](C(=O)N1CCN(C)CC1)[C@@H](C)c1ccc(NC(=O)[C@@H](NC(=O)c2nonc2C)C(C2CC2)C2CC2)c(F)c1    < 0.01 µM
CCC(=O)NC(C(=O)N1CCN(C)CC1)C(c1ccc(NC(=O)[C@@H](NC(=O)c2ccnn2CC)C(C2CC2)C2CC2)c(F)c1)C(F)(F)F (single isomer, unassigned) [Compound 356]    0.01 to 0.1 µM

###

Test: Rat pharmacokinetics, PO
Format: in vivo
Details: male rat, PO 5 mg/kg oral gavage, plasma, Linear/log trapezoidal; read-out: Rat PO AUC0-t
metricName: AUC(0-t)

CCC(=O)N[C@@H](C(=O)N1CCN(C)[C@H](C)C1)[C@@H](C)c1ccc(NC(=O)[C@@H](NC(=O)C2(F)CC2)C(C2CC2)C2CC2)c(F)c1 [Compound 245]    > 1000 ng·h/mL
CCC(=O)N[C@@H](C(=O)N1C[C@@H](C)N(C)C[C@H]1C)[C@@H](C)c1ccc(NC(=O)[C@@H](NC(=O)c2ccnn2CC)C(C2CC2)C2CC2)c(F)c1 [Compound 212]    500 to 1000 ng·h/mL
CCn1nccc1C(=O)N[C@H](C(=O)Nc1ccc([C@H](C)[C@@H](NC(=O)COC)C(=O)N2CCN(C)[C@H](C)C2)cc1F)[C@H]1CC[C@H](C)CC1 [D, reference compound]    500 to 1000 ng·h/mL
CCC(=O)N[C@@H](C(=O)N1C[C@@H](C)N(C)C[C@H]1C)[C@@H](C)c1ccc(NC(=O)[C@@H](NC(=O)c2ccnn2CC)[C@H]2CC[C@H](C)CC2)c(F)c1 [A, reference compound]    500 to 1000 ng·h/mL
CCn1nccc1C(=O)N[C@H](C(=O)Nc1ccc([C@H](C)[C@@H](NC(C)=O)C(=O)N2CCN(C)[C@H](C)C2)cc1F)[C@H]1CC[C@H](C)CC1 [C, reference compound]    < 500 ng·h/mL

###

Entries and their IC50 values follow.
Target: IL-17A/A (Homo sapiens, UniProt Q16552)
Assay: IL-17A/A HEK-Blue Cell Assay
Format: cell-based
Conditions: HEK-Blue IL-17 reporter cells, IL-17A/A stimulation, 20 hours, SEAP readout; read-out: IL17 AA HEK-5 pIC50 (converted)
metricName: IC50

C[C@@H](c1ccc(NC(=O)[C@@H](NC(=O)C2(F)CC2)C(C2CC2)C2CC2)c(F)c1)[C@@H](NC(=O)N(C)C1CC1)C(=O)N1C[C@H]2CC[C@@H](C1)N2C    < 10 nM
CCC(=O)N[C@@H](C(=O)N1C[C@@H](C)N(C)[C@@H](C)C1)[C@@H](C)c1ccc(NC(=O)[C@@H](NC(=O)c2nonc2CC)C(C2CC2)C2CC2)c(F)c1    < 10 nM
CCC(=O)N[C@@H](C(=O)N1CCN(C)[C@@H](C)C1)[C@@H](C)c1ccc(NC(=O)[C@@H](NC(=O)c2ccnn2CC)C(C2CC2)C2CC2)c(F)c1    < 10 nM
CCc1nonc1C(=O)N[C@H](C(=O)Nc1ccc([C@H](C)[C@@H](NC(=O)COC)C(=O)N2CCN(C)CC2)cc1F)C(C1CC1)C1CC1    < 10 nM
CCn1nccc1C(=O)N[C@H](C(=O)Nc1ccc([C@H](C)[C@@H](NC(=O)C(C)C2CC2)C(=O)N2CCN(C)CC2)cc1F)C(C1CC1)C1CC1 (single isomer, unassigned)    < 10 nM
CCn1nccc1C(=O)N[C@H](C(=O)Nc1ccc([C@H](C)[C@@H](NC(=O)CC2CC2)C(=O)N2CCN(C)CC2)cc1F)C(C1CC1)C1CC1    < 10 nM
CO[C@@H](C)C(=O)N[C@@H](C(=O)N1CCN(C)[C@H](C)C1)[C@@H](C)c1ccc(NC(=O)[C@@H](NC(=O)c2nonc2C)C(C2CC2)C2CC2)c(F)c1    < 10 nM
CCn1nccc1C(=O)N[C@H](C(=O)Nc1ccc([C@H](C)[C@@H](NC(=O)[C@@H](C)F)C(=O)N2CCNC(CF)C2)cc1F)C(C1CC1)C1CC1 (single isomer, unassigned)    10 to 100 nM
CCOC(=O)N1CCC[C@H]1C(=O)N[C@@H](C(=O)N1CCN(C)[C@H](C)C1)[C@@H](C)c1ccc(NC(=O)[C@@H](NC(=O)C2(F)CC2)C(C2CC2)C2CC2)c(F)c1    < 10 nM
CCn1nccc1C(=O)N[C@H](C(=O)Nc1ccc([C@H](C)[C@@H](NC(=O)C(C)Cc2cc(O)no2)C(=O)N2CCN(C)[C@H](C)C2)cc1F)C(C1CC1)C1CC1 (single isomer, unassigned) [Compound 343]    10 to 100 nM
